System: Respiratory syncytial virus
Assay: Antiviral activity against RSV B/17-058221 harboring eGFP infected in human HeLa cells assessed as reduction in virus replication measured after 3 days by laser microscopy
Assay type: functional, organism-based
Conditions: B/17-058221, HeLa, 72 h
pEC50: −log10 of the molar value.
Quantity: pEC50

Smiles Representation	Quantity	Test Value
CS(=O)(=O)N1CC2(C1)C(=O)N(Cc1nc3cc(Cl)ccc3n1CCCC(F)(F)F)c1ccccc12	pEC50	8.80

====

Measured Vd by item
Assay: Volume of distribution at steady state in Sprague-Dawley rat at 1 mg/kg, iv by LC-MS/MS analysis
Assay type: ADME, organism-based
Details: in vivo, read-out: Vdss
Quantity: Vd

Smiles Representation	Test Value
O=C1N(Cc2nc3cc(Cl)ccc3n2CCCC(F)(F)F)c2cnccc2C12CN(S(=O)(=O)C1CC1)C2	2.48 L/kg
CS(=O)(=O)N1CC2(C1)C(=O)N(Cc1nc3cc(Cl)ccc3n1CCCC(F)(F)F)c1ccccc12	4.43 L/kg
CC(C)NC(=O)N1CC2(C1)C(=O)N(Cc1nc3cc(Cl)ccc3n1CCCC(F)(F)F)c1cnccc12	1.94 L/kg
CC(C)(O)C(=O)N1CC2(C1)C(=O)N(Cc1nc3cc(Cl)ccc3n1CCCC(F)(F)F)c1ccccc12	2.78 L/kg
CC(C)C(=O)N1CC2(C1)C(=O)N(Cc1nc3cc(Cl)ccc3n1CCCCF)c1cnccc12	5.3 L/kg

====

Test system: Respiratory syncytial virus
Assay: Antiviral activity against RSV B pSynk-18537F (18537-mKate2) harboring eGFP infected in human HeLa cells assessed as reduction in virus replication measured after 3 days by laser microscopy
Format: functional, organism-based
Conditions: 72 h

Smiles Representation	System Name	EC50 [nM]
CS(=O)(=O)N1CC2(C1)C(=O)N(Cc1nc3cc(Cl)ccc3n1CCCC(F)(F)F)c1ccccc12	Respiratory syncytial virus	1.6

====

Test: Equilibrium solubility of the compound […] at pH 7 measured after 3 days by LC-MS/MS analysis
Assay type: physicochemical
Conditions: time 3 day

Smiles Representation	solubility at 72 h
CS(=O)(=O)N1CC2(C1)C(=O)N(Cc1nc3cc(Cl)ccc3n1CCCC(F)(F)F)c1ccccc12	< 0.04 µM
CC(C)NC(=O)N1CC2(C1)C(=O)N(Cc1nc3cc(Cl)ccc3n1CCCC#N)c1ccccc12	< 0.25 µM
O=C1N(Cc2nc3cc(Cl)ccc3n2CCCC(F)(F)F)c2cnccc2C12CN(S(=O)(=O)C1CC1)C2	< 0.13 µM
